- Tested on: Moraxella catarrhalis
- assay name: In vitro antibacterial activity against Moraxella catarrhalis strains 30607 and 30603 (MC).
- Type: functional
recorded endpoint: MIC

O=C1O[C@@H](CNC(=O)C(F)(F)F)CN1c1ccc(N2CC[S+]([O-])CC2)c(F)c1	> 64 µg/mL
O=C(CO)NC[C@H]1CN(c2ccc(C3CC[S+]([O-])CC3)c(F)c2)C(=O)O1 (stereo partly drawn)	8 µg/mL
NCCC(O)C(=O)NC[C@H]1CN(c2ccc(C3CCS(=O)(=O)CC3)c(F)c2)C(=O)O1 (stereo partly drawn)	> 64 µg/mL
O=C(NC[C@H]1CN(c2ccc(C3CCS(=O)(=O)CC3)c(F)c2)C(=O)O1)c1ccc(Cl)c(Cl)c1	> 64 µg/mL
O=C(NC[C@H]1CN(c2ccc(C3CCS(=O)(=O)CC3)c(F)c2)C(=O)O1)C(F)F	8 µg/mL
O=C(/C=C/c1ccc(Cl)cc1)NC[C@H]1CN(c2ccc(N3CC[S+]([O-])CC3)c(F)c2)C(=O)O1	8 µg/mL
O=C(NC[C@H]1CN(c2ccc(N3CCS(=O)(=O)CC3)c(F)c2)C(=O)O1)c1csnn1	32 µg/mL
CC(=O)Nc1ccc(/C=C/C(=O)NC[C@H]2CN(c3ccc(N4CC[S+]([O-])CC4)c(F)c3)C(=O)O2)cc1	16 µg/mL
CO/N=C/c1ccc(/C=C/C(=O)NC[C@H]2CN(c3ccc(N4CC[S+]([O-])CC4)c(F)c3)C(=O)O2)cc1	4 µg/mL
O=C(CF)NC[C@H]1CN(c2ccc(C3CC[S+]([O-])CC3)c(F)c2)C(=O)O1 (stereo partly drawn)	8 µg/mL
COc1ccc(OC)c(C(=O)NC[C@H]2CN(c3ccc(N4CC[S+]([O-])CC4)c(F)c3)C(=O)O2)c1	> 64 µg/mL
O=C(NC[C@H]1CN(c2ccc(N3CC[S+]([O-])CC3)c(F)c2)C(=O)O1)c1ccccc1	> 64 µg/mL
CSCC(=O)NC[C@H]1CN(c2ccc(C3CCS(=O)(=O)CC3)c(F)c2)C(=O)O1	8 µg/mL

----------
- Tested on: Streptococcus pneumoniae
- assay name: In vitro antibacterial activity against Streptococcus pneumoniae strains ATCC6305 and 31573 (SPN).
MIC overview
recorded endpoint: MIC (µg/mL)

CC(=O)NC[C@H]1CN(c2ccc(C3CC[S+]([O-])CC3)c(F)c2)C(=O)O1 (some centres not stated)	0.5
O=C(NC[C@H]1CN(c2ccc(C3CCS(=O)(=O)CC3)c(F)c2)C(=O)O1)C(F)F	1
CC(=O)NC[C@H]1CN(c2ccc(C3CCS(=O)(=O)CC3)c(F)c2)C(=O)O1	0.5
CC(=O)NC[C@H]1CN(c2ccc(N3CC[S+]([O-])CC3)c(F)c2)C(=O)O1	1
O=C(NC[C@H]1CN(c2ccc(N3CCS(=O)(=O)CC3)c(F)c2)C(=O)O1)C1CC1	2
O=C(CF)NC[C@H]1CN(c2ccc(C3CCS(=O)(=O)CC3)c(F)c2)C(=O)O1	0.5

----------
- Tested on: Haemophilus influenzae
- assay name: In vitro antibacterial activity against Haemophilia influenzae strains ATCC 30063 and ATCC 31517
- Format: functional
recorded endpoint: MIC

O=C1O[C@@H](CNC(=O)C(F)(F)F)CN1c1ccc(N2CCS(=O)(=O)CC2)c(F)c1	≥ 64 µg/mL
O=C1O[C@@H](CNC(=O)C(F)(F)F)CN1c1ccc(N2CC[S+]([O-])CC2)c(F)c1	> 64 µg/mL
O=C(NC[C@H]1CN(c2ccc(C3CCS(=O)(=O)CC3)c(F)c2)C(=O)O1)c1ccc(Cl)c(Cl)c1	> 64 µg/mL

Taken from ChEMBL document CHEMBL1136459.
